The measurements presented in this section are drawn from PubChem BioAssay AID651821.

assay: binders of r(CAG) RNA repeats, primary screen, biochemical, fluorescence (AID 651821); details: r(CAG) RNA repeat, TO-PRO-1 dye displacement fluorescence; at 3 µM;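 note: 0% = DMSO alone and 100% = 100 µM mitoxantrone as full dye displacement; higher means more dye released from RNA so lower well fluorescence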
In all, about 370,000 compounds went through this assay and about 4,700 (1.3%) were called active.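 Rule for the calls: active = inhibition above the plate cutoff, the mean of all test compounds on that plate plus 3 SD (cut at about 35% in these data); inactive = the rest.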 The sample as a whole holds a higher share of actives than the screen did.
Write down one outcome, taken from yes = active, no = inactive

As a guide, the following entries are already answered.
[
  {
    "COMPOUND": "O=C(Nc1ccccc1)Nc1nc2ccccc2s1",
    "CLASS_ASSIGNMENT": "yes"
  },
  {
    "COMPOUND": "CC(=O)NC(c1ccccc1)c1nc(-c2cccc(C(C)C)c2)cs1 (stereo not drawn)",
    "CLASS_ASSIGNMENT": "no"
  }
]

Let us examine a further case.
Prompt: Short answer needed: outcome of this test for CC(=O)Nc1ccc(S(=O)(=O)Nc2ccc(-c3ccc4nnc(C)n4n3)cc2)cc1 ?
Response: no

###

Can you tell me inhibition for the items I'm about to list?
assay: binders of r(CAG) RNA repeats, primary screen, biochemical, fluorescence (AID 651821); conditions: r(CAG) RNA repeat, TO-PRO-1 dye displacement fluorescence; at 3 µM; stronger effect = higher value
The campaign covered roughly 370,000 compounds. About 4,700 (1.3%) were called active. The sample as a whole holds a higher share of actives than the screen did.
Numbers only, in %.

Worked set:
[
  {
    "MOLECULE": "COc1ccc(COC(=O)NC(C(=O)O)c2ccccc2)cc1 (centres undefined)",
    "inhibition (%)": 41.2
  },
  {
    "MOLECULE": "CCCN1C(=O)c2[nH]nc(-c3ccccc3)c2C1c1ccccc1 (centres undefined)",
    "inhibition (%)": 0.38
  },
  {
    "MOLECULE": "CCC(=O)OCCCN1C(=O)CCC12CCC(c1ccccc1)CC2 (centres undefined)",
    "inhibition (%)": -0.66
  },
  {
    "MOLECULE": "COc1ccccc1C(=O)CSc1nnc(-c2ccccn2)n1-c1ccccc1",
    "inhibition (%)": 5.14
  },
  {
    "MOLECULE": "CCCCC(=O)Nc1nnc(S(=O)(=O)N(C)Cc2ccco2)s1",
    "inhibition (%)": 5.48
  },
  {
    "MOLECULE": "CC1(C(=O)NS(=O)(=O)Cc2cccc(Cl)c2)CCN1C(=O)Cc1ccc(Cl)cc1Cl (centres undefined)",
    "inhibition (%)": 42.9
  },
  {
    "MOLECULE": "O=C1c2ccccc2NC(c2ccccc2O)N1NS(=O)(=O)c1ccccc1 (centres undefined)",
    "inhibition (%)": 2.81
  },
  {
    "MOLECULE": "COc1ccc(-c2cc(-c3nnc(SCC(=O)Nc4cccc5ccccc45)n3N)[nH]n2)cc1",
    "inhibition (%)": 10.7
  },
  {
    "MOLECULE": "O=C(O)c1ccc(/C=C2\\SC(=S)N(NC(=O)c3ccc(Br)cc3)C2=O)cc1",
    "inhibition (%)": 34.9
  },
  {
    "MOLECULE": "COc1ccnc(C(=O)N2CCC(Oc3cccnc3)CC2)c1",
    "inhibition (%)": 2.96
  }
]

Hi! Can you tell me inhibition for each of these molecules?
1. O=C(Nc1nnc(-c2ccccc2F)s1)c1ccccc1F
2. Cc1ccc(F)c(S(=O)(=O)NC(=O)C2(C)CCN2C(=O)CCc2cccs2)c1 (centres undefined)
3. Cc1ccc(-c2csc(C(C#N)=C(O)CN3CCN(C(=O)c4ccco4)CC3)n2)cc1
4. CCCNC(=O)C1(C)CCN1C(=O)Cc1ccc(-c2ccccc2)cc1 (centres undefined)

Response:
[0.79, 3.47, 42.8, 0.2]

###

experiment: binders of r(CAG) RNA repeats, primary screen, biochemical, fluorescence (AID 651821); conditions: r(CAG) RNA repeat, TO-PRO-1 dye displacement fluorescence; at 3 µM; stronger effect = higher value;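 note: 0% = DMSO alone and 100% = 100 µM mitoxantrone as full dye displacement; higher means more dye released from RNA so lower well fluorescence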
Out of some 370,000 compounds screened, about 4,700 (1.3%) were called active. The sample as a whole holds a higher share of actives than the screen did.
Can you tell me inhibition for the items I'm about to list?
Give bare numbers, in %.

Worked set:
[
  {
    "SMI": "Cc1cc(OCCCC(=O)Nc2cc(S(=O)(=O)N3CCOCC3)ccc2N2CCOCC2)ccc1Cl",
    "UNITS": "%",
    "inhibition": 2.46
  },
  {
    "SMI": "C[C@H](NC(=O)[C@@H]1Cc2ccccc2CN1C(=O)OC(C)(C)C)C(=O)NC1CCCC1",
    "UNITS": "%",
    "inhibition": -7.18
  },
  {
    "SMI": "CCOC(=O)[C@]12CCCC3=C1N(CCC3)C(=O)[C@@H](CC(=O)NCC13CC4CC(CC(C4)C1)C3)C2",
    "UNITS": "%",
    "inhibition": -1.58
  },
  {
    "SMI": "C=CCN1C(=O)[C@H](CC(=O)NCCCN2CCCC2=O)[C@@]2(C(=O)OCC)CCCC=C12",
    "UNITS": "%",
    "inhibition": 1.48
  },
  {
    "SMI": "COc1ccnc(NC(=S)N2CCN(c3ncc(C(F)(F)F)cc3Cl)CC2)c1",
    "UNITS": "%",
    "inhibition": 2.94
  },
  {
    "SMI": "O=S1(=O)c2c(cccc2N2CCCC2)O[C@H](COCc2ccccc2)CN1C1CC1",
    "UNITS": "%",
    "inhibition": 1.71
  }
]

Could you now consider this next compound?
Prompt: Fill in reported inhibition for this entry: COc1cccc(CNC(=O)[C@H]2CCCN2C(=O)[C@H]2CCCN2C(=O)C2CCCCC2)c1
Response: 1.57

###

assay: binders of r(CAG) RNA repeats, primary screen, biochemical, fluorescence (AID 651821); settings: r(CAG) RNA repeat, TO-PRO-1 dye displacement fluorescence; at 3 µM;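 note: 0% = DMSO alone and 100% = 100 µM mitoxantrone as full dye displacement; higher means more dye released from RNA so lower well fluorescence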
In all, about 370,000 compounds went through this assay and about 4,700 (1.3%) were called active.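 Rule for the calls: active = inhibition above the plate cutoff, the mean of all test compounds on that plate plus 3 SD (cut at about 35% in these data); inactive = the rest.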 The full list was thinned out, with actives kept by preference.
Write down one outcome, taken from active, inactive

[
  {
    "COMPOUND": "Cc1ccsc1-c1cc(C(=O)O)c2c(ccc3ccccc32)n1",
    "CLASS_ASSIGNMENT": "inactive"
  },
  {
    "COMPOUND": "CCCOc1ccc(Cn2c(O)cc(=O)[nH]c2=O)cc1",
    "CLASS_ASSIGNMENT": "active"
  },
  {
    "COMPOUND": "CC(=O)N1CCC(C(=O)Nc2nc(-c3ccccc3)ns2)CC1",
    "CLASS_ASSIGNMENT": "inactive"
  },
  {
    "COMPOUND": "CCN=C1SC(CC(=O)Nc2ccc(C)cc2)C(=O)N1CC (configuration not stated)",
    "CLASS_ASSIGNMENT": "inactive"
  },
  {
    "COMPOUND": "O=C(COC(=O)/C=C/c1cccc(Cl)c1)NCc1cccs1",
    "CLASS_ASSIGNMENT": "inactive"
  },
  {
    "COMPOUND": "CCc1nnc(NC(=O)C2CCCN2S(=O)(=O)c2ccccc2)s1 (configuration not stated)",
    "CLASS_ASSIGNMENT": "inactive"
  }
]

Prompt: Short answer needed: outcome of this test for CCSc1nsc(NC(=O)Nc2cccc(C(C)=O)c2)n1 ?
Response: active

Prompt: Short answer needed: outcome of this test for C=CCSc1nnc2c(n1)-c1cccc3cccc-2c13 ?
Response: inactive

Prompt: Short answer needed: outcome of this test for C[C@H](C(=O)N(C)c1ccccc1)[C@@H](O)c1ccc(Cl)cc1 ?
Response: inactive

Prompt: Short answer needed: outcome of this test for C=CCSc1nsc(NC(=O)Nc2cccc(C(C)=O)c2)n1 ?
Response: active

Prompt: Short answer needed: outcome of this test for Cc1ccccc1NC(=O)C1CCN(c2ncccn2)CC1 ?
Response: inactive

###

assay: binders of r(CAG) RNA repeats, primary screen, biochemical, fluorescence (AID 651821); details: r(CAG) RNA repeat, TO-PRO-1 dye displacement fluorescence; at 3 µM;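 note: 0% = DMSO alone and 100% = 100 µM mitoxantrone as full dye displacement; higher means more dye released from RNA so lower well fluorescence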
The campaign covered roughly 370,000 compounds. About 4,700 (1.3%) were called active.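 The calls were made as follows: active = inhibition above the plate cutoff, the mean of all test compounds on that plate plus 3 SD (cut at about 35% in these data); inactive = the rest.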 The sample as a whole holds a higher share of actives than the screen did.
Write down one outcome, taken from active, inactive

As a guide, the following entries are already answered.
[
  {
    "COMPOUND": "O=C(CCS(=O)(=O)c1ccccc1)Nc1ccc(Cl)c(Cl)c1",
    "CLASS_ASSIGNMENT": "inactive"
  },
  {
    "COMPOUND": "COCCN(Cc1ccccc1)C(=O)Cc1ccc(S(=O)(=O)N2CCOCC2)s1",
    "CLASS_ASSIGNMENT": "inactive"
  },
  {
    "COMPOUND": "CO[C@@H]1[C@@H](OC(N)=O)[C@@H](O)C(Oc2ccc3c(O)c(NC(=O)c4ccc(O)c(CC=C(C)C)c4)c(=O)oc3c2C)OC1(C)C (some centres not stated)",
    "CLASS_ASSIGNMENT": "active"
  },
  {
    "COMPOUND": "C=CCN=C1NC(c2cccc(C(F)(F)F)c2)C(C(=O)OC)=C(C)N1C (configuration not stated)",
    "CLASS_ASSIGNMENT": "inactive"
  }
]

Prompt: Short answer needed: outcome of this test for Nc1[nH]c(C(=O)c2ccc(Br)cc2)c(-c2ccc3c(c2)OCO3)c1C(=O)NCCc1c[nH]c2ccccc12 ?
Response: inactive

Prompt: Short answer needed: outcome of this test for O=C(NC1CCCCN(Cc2ccc(Cl)cc2)C1=O)c1ccc(Br)cc1 (configuration not stated) ?
Response: inactive

Prompt: Short answer needed: outcome of this test for C/C(=N/NC(=O)c1cc(Cl)ccc1O)C12CC3CC(CC(C3)C1)C2 ?
Response: inactive

Prompt: Short answer needed: outcome of this test for COc1ccc2c(c1)CN1CN(CCc3ccccc3)S(=O)(=O)CC21 (configuration not stated) ?
Response: inactive

Prompt: Short answer needed: outcome of this test for CCSc1nnc(SCC(=O)NNC(=O)c2ccccc2F)s1 ?
Response: inactive

Prompt: Short answer needed: outcome of this test for C/C(Cc1ccccc1)=N\NC(=O)CNC(=O)c1cccc(Br)c1 ?
Response: inactive

Prompt: Short answer needed: outcome of this test for C[C@H]1[C@H](c2ccccc2)Oc2cc(Br)ccc2S(=O)(=O)N1Cc1cccc(F)c1 ?
Response: inactive
